Tested on: B16F10
Assay: Growth inhibition test (MTT), cytotoxic action on tumour cell lines
Format: cell-based, mouse
Conditions: B16F10; MTT after day 6; read-out: IC50 values of the cytotoxic action on tumour cell lines, B16F10
REPORTED_PROPERTY: pIC50
Interpret pIC50 as the negative base-10 log of the concentration measured in mol/L.

// worked examples, pIC50 included
MOLECULE	TEST_TARGET	REPORTED_RESULT
CCCNC(=O)Nc1cccc(S(=O)(=O)Nc2cccc(C(CC(=O)O)NC(=O)Nc3ccc(NC(=S)N4CCC[C@H]4C(=O)N[C@@H](CC(C)C)C(=O)NCC(=O)N[C@@H](CC(C)C)C(=O)N[C@H](C(=O)N[C@H](C(=O)O[C@]4(CC)C(=O)OCc5c4cc4n(c5=O)Cc5cc6ccccc6nc5-4)C(C)C)C(C)CC)cc3)c2)c1 (some centres unmarked)	B16F10	6.10
CCCNC(=O)Nc1cccc(S(=O)(=O)Nc2cccc(C(CC(=O)O)NC(=O)Nc3ccc(NC(=S)N4CCC[C@@H]4C(=O)N4CCC[C@@H]4C(=O)N[C@@H](CC(C)C)C(=O)NCC(=O)N[C@H](CC(C)C)C(=O)N[C@H](CC(N)=O)C(=O)N[C@@H](C(=O)O[C@@]4(CC)C(=O)OCc5c4cc4n(c5=O)Cc5cc6ccccc6nc5-4)C(C)C)cc3)c2)c1 (single isomer, unassigned)	B16F10	6.60
CCCNC(=O)Nc1cccc(S(=O)(=O)Nc2cccc(C(CC(=O)O)NC(=O)Nc3ccc(NC(=S)N4CCC[C@H]4C(=O)N[C@@H](CC(C)C)C(=O)NCC(=O)N[C@@H](CC(C)C)C(=O)N[C@H](C(=O)N[C@H](C(=O)O[C@]4(CC)C(=O)OCc5c4cc4n(c5=O)Cc5cc6ccccc6nc5-4)C(C)C)C(C)C)cc3)c2)c1 (some centres unmarked)	B16F10	6.70
CCCNC(=O)Nc1cccc(S(=O)(=O)Nc2cccc(C(CC(=O)O)NC(=O)Nc3ccc(NC(=S)N4CCCC4C(=O)NC(CC(C)C)C(=O)NCC(=O)N[C@H](CC(C)C)C(=O)N[C@@H](C(=O)O[C@@]4(CC)C(=O)OCc5c4cc4n(c5=O)Cc5cc6ccccc6nc5-4)C(C)C)cc3)c2)c1 (some centres unmarked)	B16F10	6.46

As a next step, examine the molecule that follows.
Exam item: Returns the measured pIC50 for the input molecule. Input: CCCNC(=O)Nc1cccc(S(=O)(=O)Nc2cccc(C(CC(=O)O)NC(=O)Nc3ccc(NC(=S)NCC(=O)N4CCC[C@@H]4C(=O)N[C@@H](CC(C)C)C(=O)NCC(=O)N[C@H](CC(C)C)C(=O)N[C@H](Cc4c[nH]cn4)C(=O)N[C@@H](C(=O)O[C@@]4(CC)C(=O)OCc5c4cc4n(c5=O)Cc5cc6ccccc6nc5-4)C(C)C)cc3)c2)c1 (single isomer, unassigned)
Marked response: 6.40
